meta.source: the supplement of paper PMC6757056

B1: library; a variant is named by its letters at N, in order (parent)
chain: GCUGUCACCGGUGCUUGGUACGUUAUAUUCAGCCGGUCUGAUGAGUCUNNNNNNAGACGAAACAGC

# Variants of: B1
# Assay Explanation: normalized RNA/DNA level with ligand (relative to sTRSVctl = 100) (log10 (% of sTRSVctl)); HEK293T overexpressing SLC46A1; ligand concentration (+) RNA-Seq: 6 mM; higher = less ribozyme self-cleavage, higher mRNA level
# Condition Context: with (6R,S)-folinic acid; ligand present: yes
Items are presented alongside their recorded normalized RNA/DNA level with ligand (log10).
Assay Endpoint: normalized RNA/DNA level with ligand (log10)

>>> print(df.to_string())
    variant_descriptor  measured_value
 0              UGGUAC            1.99
 1              AAUCGG            2.01
 2              CGCUGU               2
 3              GAAUUA            2.03
 4              UAGUCA            2.01
 5              GCGAAA            2.02
 6              UGAGAC            1.98
 7              UCUUGU            2.02
 8              GUGAUU            2.02
 9              AUAAGC            2.02
10              CCCGUA            2.07
11              GUUCGU            2.01
12              AUCGGC            2.02
13              UCCAGG            2.01
14              GACCAA            2.03
15              GCCGUU            2.04
16              CGUCGU               2
17              UGCUUC            2.04
18              CGCUAU               2
19              AUCUUG            2.01
20              ACUAUC            2.04
21              AUCACG            2.01
22              UUAAAC            1.99
23              UCACCG            2.01
24              CCGCUC            2.09
25              AAAUCC            2.03
26              UUUGUC            2.03
